experimentSummary: Human coffee intervention study: plasma concentrations after roasted coffee brew by UPLC-MS/MS
Format: in vivo
details: human, plasma, oral, 200 mL, participant cbdu, 1 h after coffee; b = below LLOQ; read-out: plasma concentration, individual
propertyMeasured: concentration at 1 h (µM)
Please state the figure in µM; there is no need to write the unit.

{"compound": "CC1C(=O)C23CCC4C(C(=O)OC5OC(C(=O)O)C(O)C(O)C5O)CC(O)CC4(C)C2CCC1C3 (stereo not drawn) [M2]", "propertyMeasured": "concentration at 1 h", "readingUnit": "µM", "numericReadout": 0.0001}

The measured concentration at 1 h associated with C=C1C2CCC3C4(C)CC(O)CC(C(=O)OC5OC(C(=O)O)C(O)C(O)C5O)C4CCC3(C2)C1O [M1, atractyligenin-19-O-β-D-glucuronide] reads 0.0246

The measured concentration at 1 h associated with C=C1[C@@H]2CC[C@@H]3[C@@](CCC4[C@H](C(=O)O)C[C@@H](O)C[C@]43C)(C2)[C@@H]1O (stereo partly drawn) [compound 1, atractyligenin] reads 0.0316

* * *

Recorded measurements of concentration at 10 h, one per entry
experimentSummary: Human coffee intervention study: plasma concentrations after roasted coffee brew by UPLC-MS/MS
Type: in vivo
details: human, plasma, oral, 200 mL, participant rrmk, 10 h after coffee; read-out: plasma concentration, individual
Experimental: The study included ten volunteers (5 females, 5 males) (age: 28.3 ± 2.3 years; BMI: 21.89 ± 2.22 kg/m^2). […] The study participants underwent a dietary protocol that excluded all forms of coffee consumption. […] The meal was composed of pasta, margarine, and salt, and the amount of energy was calculated based on the participant’s basal energy demand. […]
Please state the figure in nM; there is no need to write the unit.

Examples from the recorded data:
{"compound": "C=C1[C@@H]2CC[C@@H]3[C@@](CCC4[C@H](C(=O)O)C[C@@H](O)C[C@]43C)(C2)[C@@H]1O (stereo partly drawn)", "concentration at 10 h / nM": 17.9}
{"compound": "C=C1C2CCC3C4(C)CC(O)CC(C(=O)OC5OC(C(=O)O)C(O)C(O)C5O)C4CCC3(C2)C1O [M1, atractyligenin-19-O-β-D-glucuronide]", "concentration at 10 h / nM": 14.4}

Next compound, concentration at 10 h to be filled in.
The measured concentration at 10 h associated with CC1C(=O)C23CCC4C(C(=O)O)CC(OC5OC(C(=O)O)C(O)C(O)C5O)CC4(C)C2CCC1C3 (stereo not drawn) reads 50.6

* * *

experimentSummary: Human coffee intervention study: plasma concentrations after roasted coffee brew by UPLC-MS/MS
Format: in vivo
details: human, plasma, oral, 200 mL, participant xrwz, 10 h after coffee; b = below LLOQ; read-out: plasma concentration, individual
propertyMeasured: concentration at 10 h (µM)
Please state the figure in µM; there is no need to write the unit.

Examples from the recorded data:
{"compound": "CC1C(=O)C23CCC4C(C(=O)O)CC(OC5OC(C(=O)O)C(O)C(O)C5O)CC4(C)C2CCC1C3 (stereo not drawn) [M3]", "readingUnit": "µM", "concentration at 10 h": 0.0041}
{"compound": "C=C1[C@@H]2CC[C@@H]3[C@@](CCC4[C@H](C(=O)O)C[C@@H](O)C[C@]43C)(C2)[C@@H]1O (stereo partly drawn) [compound 1, atractyligenin]", "readingUnit": "µM", "concentration at 10 h": 0.0104}

Next compound, concentration at 10 h to be filled in.
The measured concentration at 10 h associated with C=C1C2CCC3C4(C)CC(O)CC(C(=O)OC5OC(C(=O)O)C(O)C(O)C5O)C4CCC3(C2)C1O [M1, atractyligenin-19-O-β-D-glucuronide] reads 0.0105
